Data provenance is paper PMC11211886.

# Assay protocol: Metabolic stability in dog liver microsomes
# Type: in vitro ADME
# Recorded conditions: FMO-deactivated liver microsomes, pH 7.4; female dog liver microsomes, FMO deactivation; read-out: in vitro t1/2
Measured endpoint: half-life at 1 µM (min)
Write the answer as a number in min, unit excluded.

IN: Value lookup for half-life at 1 µM; key = C[C@H](Nc1ncnc(N)c1C#N)c1cc2ncc(Cl)n2nc1-c1ccccc1
OUT: 39.6

---

# Assay protocol: Tissue distribution in SD rats after oral dose
# Set-up: species or system SD rat
# Recorded conditions: male, SD, rat, in vivo, po, 5 mg/kg
# Description: After blood collection, the rats were sacrificed, and 18 tissues, namely, brain, breast, skin, fat, testis, ovary, bladder, pancreas, skeletal muscle, heart, lung, kidney, liver, stomach, small intestine, colon, spleen, and spinal cord, were removed from the rats at designated time points. These tissues were washed with saline and dried with filter paper. […] (Cheongju-si, Korea). […] The weight of the collected samples was recorded. Samples were stored in a −20°C freezer until analysis.
Measured endpoint: AUC(0-t) (ng·h/mL)
Report the value in ng·h/mL with no unit label.

IN: Give the measured AUC(0-t) of C[C@H](Nc1ncnc(N)c1C#N)c1cc2ncc(Cl)n2nc1-c1ccccc1 .
OUT: 1380

---

# Assay protocol: Caco-2 bidirectional transport permeability
# Format: in vitro ADME, human
# Recorded conditions: human
Measured endpoint: Papp B→A at 60 min, 40 µM (×10⁻⁶ cm/s)
Record the value in ×10⁻⁶ cm/s, omitting the unit from your answer.

IN: Reported Papp B→A at 60 min, 40 µM, molecule C[C@H](Nc1ncnc(N)c1C#N)c1cc2ncc(Cl)n2nc1-c1ccccc1 [Amdizalisib] : ____
OUT: 45.4

---

# Assay protocol: Single-dose PK in SD rats (IV/PO)
# Parameters: species or system SD rat
# Recorded conditions: both sexes, SD, rat, in vivo, iv, 5 mg/kg
Measured endpoint: AUC(0-t) (ng·h/mL)
The reply should contain only the number, in ng·h/mL.

IN: Need AUC(0-t), item C[C@H](Nc1ncnc(N)c1C#N)c1cc2ncc(Cl)n2nc1-c1ccccc1
OUT: 13900

---

# Tgt: MATE2-K (Homo sapiens)
# Sequence (Q86VL8 1-566 isoform Q86VL8-3): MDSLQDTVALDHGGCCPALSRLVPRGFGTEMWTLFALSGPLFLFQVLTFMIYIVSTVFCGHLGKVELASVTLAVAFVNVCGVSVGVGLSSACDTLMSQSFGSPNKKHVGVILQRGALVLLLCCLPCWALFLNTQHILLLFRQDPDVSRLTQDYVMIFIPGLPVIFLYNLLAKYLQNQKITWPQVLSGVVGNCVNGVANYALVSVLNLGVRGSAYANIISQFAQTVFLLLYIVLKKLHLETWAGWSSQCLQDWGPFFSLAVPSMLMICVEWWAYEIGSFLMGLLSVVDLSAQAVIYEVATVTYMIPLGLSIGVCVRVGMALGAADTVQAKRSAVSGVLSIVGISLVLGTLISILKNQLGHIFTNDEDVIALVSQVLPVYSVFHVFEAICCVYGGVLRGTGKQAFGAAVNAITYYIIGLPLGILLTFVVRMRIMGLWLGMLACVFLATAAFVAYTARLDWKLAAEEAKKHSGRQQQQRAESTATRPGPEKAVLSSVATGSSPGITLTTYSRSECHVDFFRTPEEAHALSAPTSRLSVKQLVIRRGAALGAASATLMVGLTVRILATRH
# Assay protocol: in vitro
# Recorded conditions: human, pH 8
Measured endpoint: inhibition at 2 min, 30 µM (%)
Return type: number; implicit unit %.

IN: Consider the molecule shown here: C[C@H](Nc1ncnc(N)c1C#N)c1cc2ncc(Cl)n2nc1-c1ccccc1 What is its recorded inhibition at 2 min, 30 µM?
OUT: 50.7

---

# Assay protocol: Single-dose PK in cynomolgus monkeys (IV/PO)
# Type: in vivo, cynomolgus monkey
# Recorded conditions: both sexes, cynomolgus monkey, in vivo, po, 5 mg/kg
Measured endpoint: AUC(0-inf) (ng·h/mL)
Quick note: give the figure in ng·h/mL, leave out the unit.

IN: // AUC(0-inf) lookup, key: C[C@H](Nc1ncnc(N)c1C#N)c1cc2ncc(Cl)n2nc1-c1ccccc1 [Amdizalisib]
OUT: 2390

---

# Assay protocol: Caco-2 bidirectional transport permeability
# Format: in vitro ADME, human
# Recorded conditions: human
Measured endpoint: Papp A→B at 60 min, 5 µM
The reply should read as a number followed by its unit.

IN: Which Papp A→B at 60 min, 5 µM is reported for this compound? C[C@H](Nc1ncnc(N)c1C#N)c1cc2ncc(Cl)n2nc1-c1ccccc1
OUT: 38.5 ×10⁻⁶ cm/s

---

# Assay protocol: Single-dose PK and food effect in beagle dogs (IV/PO)
# Parameters: species or system beagle dog
# Recorded conditions: both sexes, beagle, dog, in vivo, iv, 0.5 mg/kg, Beagle dog, fasted, IV 0.5 mg/kg; read-out: MRT
Measured endpoint: MRT (h)
Respond with the bare value in h.

IN: If you can, please state the reported MRT value of C[C@H](Nc1ncnc(N)c1C#N)c1cc2ncc(Cl)n2nc1-c1ccccc1 .
OUT: 3.65

---

# Tgt: OCT2 (Homo sapiens, UniProt O15244)
# Sequence (O15244 whole entry): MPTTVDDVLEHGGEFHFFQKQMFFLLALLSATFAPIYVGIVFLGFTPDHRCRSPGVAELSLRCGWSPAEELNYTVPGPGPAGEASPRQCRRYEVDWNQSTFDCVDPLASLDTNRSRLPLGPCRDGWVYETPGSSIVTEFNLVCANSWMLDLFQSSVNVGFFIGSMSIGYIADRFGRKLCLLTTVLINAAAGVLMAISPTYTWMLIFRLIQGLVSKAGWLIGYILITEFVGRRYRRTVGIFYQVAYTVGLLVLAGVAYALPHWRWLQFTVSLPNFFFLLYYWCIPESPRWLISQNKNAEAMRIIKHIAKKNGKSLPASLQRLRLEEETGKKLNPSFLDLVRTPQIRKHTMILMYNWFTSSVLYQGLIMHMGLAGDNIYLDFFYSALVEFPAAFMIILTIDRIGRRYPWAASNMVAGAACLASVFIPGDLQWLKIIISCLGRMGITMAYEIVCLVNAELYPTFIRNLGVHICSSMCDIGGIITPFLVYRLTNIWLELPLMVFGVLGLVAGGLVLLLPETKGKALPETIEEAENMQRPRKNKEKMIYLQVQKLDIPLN
# Assay protocol: in vitro
# Recorded conditions: human, pH 7.4
Measured endpoint: inhibition at 2 min, 10 µM (%)
Give your result in % as a bare value.

IN: Reported inhibition at 2 min, 10 µM for C[C@H](Nc1ncnc(N)c1C#N)c1cc2ncc(Cl)n2nc1-c1ccccc1 [Amdizalisib] : what is it?
OUT: 7.34

---

# Tgt: OATP1B3 (Homo sapiens, UniProt Q9NPD5)
# Sequence (Q9NPD5 whole entry): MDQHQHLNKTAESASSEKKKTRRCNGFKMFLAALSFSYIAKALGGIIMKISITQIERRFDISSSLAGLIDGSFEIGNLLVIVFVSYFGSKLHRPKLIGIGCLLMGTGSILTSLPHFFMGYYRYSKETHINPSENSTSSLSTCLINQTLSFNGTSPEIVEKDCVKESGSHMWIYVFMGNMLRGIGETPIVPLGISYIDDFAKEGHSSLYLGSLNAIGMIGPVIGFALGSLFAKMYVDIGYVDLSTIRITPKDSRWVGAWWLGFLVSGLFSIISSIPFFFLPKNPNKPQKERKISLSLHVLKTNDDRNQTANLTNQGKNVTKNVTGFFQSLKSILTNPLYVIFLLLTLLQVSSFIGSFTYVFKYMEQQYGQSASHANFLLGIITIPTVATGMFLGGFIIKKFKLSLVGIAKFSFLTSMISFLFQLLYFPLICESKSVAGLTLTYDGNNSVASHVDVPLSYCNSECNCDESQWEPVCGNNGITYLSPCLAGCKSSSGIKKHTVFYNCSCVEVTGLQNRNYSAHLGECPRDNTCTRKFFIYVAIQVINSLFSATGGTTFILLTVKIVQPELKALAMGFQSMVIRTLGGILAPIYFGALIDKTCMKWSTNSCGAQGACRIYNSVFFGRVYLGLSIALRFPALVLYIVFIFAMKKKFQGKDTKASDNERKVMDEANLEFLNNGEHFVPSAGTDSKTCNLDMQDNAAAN
# Assay protocol: in vitro
# Recorded conditions: human, pH 7.4
Measured endpoint: inhibition at 5 min, 30 µM (%)
// units = %; emit number, no label

IN: Need inhibition at 5 min, 30 µM of C[C@H](Nc1ncnc(N)c1C#N)c1cc2ncc(Cl)n2nc1-c1ccccc1 , thanks.
OUT: 96.2

---

# Assay protocol: Single-dose PK and food effect in beagle dogs (IV/PO)
# Set-up: species or system beagle dog
# Recorded conditions: both sexes, in vivo; Beagle dog, fasted, IV 0.5 mg/kg
Measured endpoint: clearance (mL/min/kg)
Give the number; mL/min/kg is assumed, so skip it.

IN: Please give the measured clearance for this compound: C[C@H](Nc1ncnc(N)c1C#N)c1cc2ncc(Cl)n2nc1-c1ccccc1 [Amdizalisib]
OUT: 11.8

---

# Assay protocol: Single-dose PK in SD rats (IV/PO)
# Parameters: species or system SD rat
# Recorded conditions: both sexes, SD, rat, in vivo, po, 25 mg/kg
# From the text: For the single-dose PK study, twenty-four rats were divided into four groups, with six rats (male: female = 1:1) in each group.
Measured endpoint: AUC(0-inf) (ng·h/mL)
# number only, unit ng·h/mL dropped from output

IN: I have this compound here, C[C@H](Nc1ncnc(N)c1C#N)c1cc2ncc(Cl)n2nc1-c1ccccc1 , and I need its recorded AUC(0-inf).
OUT: 52600

---

# Tgt: OATP1B1 (Homo sapiens, UniProt Q9Y6L6)
# Sequence (Q9Y6L6 1-691): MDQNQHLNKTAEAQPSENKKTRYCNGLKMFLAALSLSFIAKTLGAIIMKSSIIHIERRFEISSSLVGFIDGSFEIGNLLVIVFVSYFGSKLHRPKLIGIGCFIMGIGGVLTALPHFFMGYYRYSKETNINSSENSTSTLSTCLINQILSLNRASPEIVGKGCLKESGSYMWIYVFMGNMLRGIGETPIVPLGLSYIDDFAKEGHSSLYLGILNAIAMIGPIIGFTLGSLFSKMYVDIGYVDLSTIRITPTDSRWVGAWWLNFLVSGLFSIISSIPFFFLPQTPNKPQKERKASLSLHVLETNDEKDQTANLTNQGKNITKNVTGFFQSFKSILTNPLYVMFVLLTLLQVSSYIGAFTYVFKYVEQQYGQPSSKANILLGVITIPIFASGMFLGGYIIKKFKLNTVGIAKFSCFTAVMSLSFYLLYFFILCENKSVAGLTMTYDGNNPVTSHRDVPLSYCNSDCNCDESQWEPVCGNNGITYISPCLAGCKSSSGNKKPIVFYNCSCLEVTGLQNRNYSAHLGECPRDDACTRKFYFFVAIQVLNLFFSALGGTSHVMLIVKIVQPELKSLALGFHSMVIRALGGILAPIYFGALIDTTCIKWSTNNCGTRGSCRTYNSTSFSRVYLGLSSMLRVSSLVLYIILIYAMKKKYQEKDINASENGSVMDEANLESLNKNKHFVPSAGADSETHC
# Assay protocol: in vitro
# Recorded conditions: human, pH 7.4
Measured endpoint: inhibition at 2 min, 1 µM (%)
Field format: number, assumed %, no unit text.

IN: Recorded inhibition at 2 min, 1 µM for C[C@H](Nc1ncnc(N)c1C#N)c1cc2ncc(Cl)n2nc1-c1ccccc1 , please?
OUT: -4.64

---

# Tgt: BCRP (Homo sapiens)
# Assay protocol: in vitro
# Recorded conditions: human
Measured endpoint: inhibition at 60 min, 5 µM (%)
Please give a number only; it is taken to be in %.

IN: Value lookup for inhibition at 60 min, 5 µM; key = C[C@H](Nc1ncnc(N)c1C#N)c1cc2ncc(Cl)n2nc1-c1ccccc1
OUT: 24.2

---

# Assay protocol: Single-dose PK and food effect in beagle dogs (IV/PO)
# Parameters: species or system beagle dog
# Recorded conditions: both sexes, beagle, dog, in vivo, po, 3.5 mg/kg
Measured endpoint: Tmax (h)
Kindly answer with a numeric value in h, unit omitted.

IN: Name the recorded Tmax for C[C@H](Nc1ncnc(N)c1C#N)c1cc2ncc(Cl)n2nc1-c1ccccc1 [Amdizalisib] .
OUT: 6.25

---

# Tgt: BCRP (Homo sapiens, UniProt Q9UNQ0)
# Sequence (Q9UNQ0 whole entry): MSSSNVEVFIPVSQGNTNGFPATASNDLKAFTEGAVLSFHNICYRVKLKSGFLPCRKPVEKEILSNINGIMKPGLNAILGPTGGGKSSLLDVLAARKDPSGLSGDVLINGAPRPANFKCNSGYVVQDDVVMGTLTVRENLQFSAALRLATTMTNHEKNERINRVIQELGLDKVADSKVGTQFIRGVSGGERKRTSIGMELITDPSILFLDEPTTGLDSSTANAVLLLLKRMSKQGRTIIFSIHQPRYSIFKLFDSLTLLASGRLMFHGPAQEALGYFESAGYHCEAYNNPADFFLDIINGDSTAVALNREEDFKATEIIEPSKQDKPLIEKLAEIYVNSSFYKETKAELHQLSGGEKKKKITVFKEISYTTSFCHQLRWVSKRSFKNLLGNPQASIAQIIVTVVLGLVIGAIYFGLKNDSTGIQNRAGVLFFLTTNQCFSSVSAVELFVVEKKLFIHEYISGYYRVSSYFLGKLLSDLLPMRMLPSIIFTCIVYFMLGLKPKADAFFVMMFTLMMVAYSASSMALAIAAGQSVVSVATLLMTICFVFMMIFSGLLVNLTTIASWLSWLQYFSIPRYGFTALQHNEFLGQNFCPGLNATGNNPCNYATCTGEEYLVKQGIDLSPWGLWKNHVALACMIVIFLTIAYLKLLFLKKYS
# Assay protocol: in vitro
# Recorded conditions: human
Measured endpoint: inhibition at 60 min, 0.5 µM (%)
Supply the numeric figure in %, leaving out any unit text.

IN: // query inhibition at 60 min, 0.5 µM value for entry C[C@H](Nc1ncnc(N)c1C#N)c1cc2ncc(Cl)n2nc1-c1ccccc1
OUT: 34.2
